- Test system: SUDHL10 cells
- ASSAY SUMMARY: Induction of cytotoxicity (CellTiter-Glo, 5 h), SUDHL10
- CONDITION SUMMARY: read-out: Cytotox SUDHL10 [M] (median); IC50, median; SUDHL10, 5 h; listed as 080
ASSAY READOUT: IC50 (M)
Write the number in M without appending the unit.

input: Dear colleague, I am looking for the recorded IC50 of the following compound: Cc1c2c(nn1C)COCC1CCC1Cn1c(C(=O)O)c(CCCOc3cccc4ccccc34)c3ccc(Cl)c-2c31 (single isomer, unassigned)
output: 8.1e-07

###

- Tested on: SUDHL10 cells
- ASSAY SUMMARY: Induction of caspase-3/7 activity (Caspase-Glo 3/7), SUDHL10
- Format: cell-based
- CONDITION SUMMARY: EC50, median; SUDHL10, 3 h treatment; listed as 075
- Text: Induction of Caspase-3/7 Activity Upon Treatment of Cells with Selected Compounds The BH3-domain of MCL-1 sequesters pro-apoptotic proteins, thereby inhibiting apoptosis. In contrast, MCL-1 inhibitors are expected to antagonize this effect leading to an increase in apoptosis, which can be determined by measuring the activity of caspase-3/7. […] For the evaluation of the results, the background measured with “medium-only” was subtracted from all other values.
ASSAY READOUT: EC50 (µM)
The reply should be a number in µM, with the unit left off.

input: Need EC50 of CCc1c2c(nn1C)CN(CC(F)F)CCCCn1c(C(=O)O)c(CCCOc3cccc4cc(F)ccc34)c3ccc(Cl)c-2c31 (single isomer, unassigned; enantiomer 1) [Example 75] , thanks.
output: 3.5

###

- Tested on: SUDHL5 cells
- ASSAY SUMMARY: Induction of cytotoxicity (CellTiter-Glo, 5 h), SUDHL5
- CONDITION SUMMARY: Homo sapiens, SU-DHL-5, 5 h, read-out: Cytotox SUDHL5 [M] (median), IC50, median; SUDHL5, 5 h
Listing of recorded IC50 by entry.
Respond numerically; units are M and should not be typed.

Recorded IC50, per entry:
1. CCc1c2c(nn1C)CCCN(CC(F)(F)C(F)F)CCn1c(C(=O)O)c(CCCOc3cccc4cc(F)ccc34)c3ccc(Cl)c-2c31 (racemic) | 6.6e-07
2. CCc1c2c(nn1C)CCCN(CCCCO)CCn1c(C(=O)O)c(CCCOc3cccc4cc(F)ccc34)c3ccc(Cl)c-2c31 (racemic) | 1.1e-06
3. CCc1c2c(nn1C)CCCCCCn1c(C(=O)O)c(CCCOc3cccc4cc(F)ccc34)c3ccc(Cl)c-2c31 (single isomer, unassigned; enantiomer 1) | 1e-06

input: What does the data say about its IC50? Entry: Cc1c2c(nn1C)CN(CC(F)(F)F)CCCCn1c(C(=O)O)c(CCCOc3cccc4cc(F)ccc34)c3ccc(Cl)c-2c31 (racemic)
output: 8.4e-07

input: Consider the molecule CCc1c2c(nn1C)CN(CC(F)(F)F)CCCCn1c(C(=O)O)c(CCCOc3cccc4cc(F)ccc34)c3ccc(Cl)c-2c31 (racemic) and give its measured IC50.
output: 3.4e-07

input: Data request, read-out IC50, for CCc1c2c(nn1C)COCC1(CCn3c(C(=O)O)c(CCCOc4cccc5ccccc45)c4ccc(Cl)c-2c43)CC1 (racemic) [Example 72]
output: 1e-06

###

- Test system: SUDHL5 cells
ASSAY READOUT: pIC50
pIC50 (log units): -log10 of the concentration in mol/L.

input: SUDHL5 cells / pIC50 / CCc1c2c(nn1C)COC/C=C\Cn1c(C(=O)O)c(CCCOc3cccc4ccccc34)c3ccc(Cl)c-2c31 (racemic) : value?
output: 5.92

###

- Tested on: SUDHL5 cells
- ASSAY SUMMARY: Antiproliferation assay (CellTiter-Glo, 72 h), SUDHL5
- Format: cell-based
- CONDITION SUMMARY: Homo sapiens, SU-DHL-5, 72 h, IC50, median; SUDHL5, 72 h; read-out: Antiproli SUDHL5 [M] (median)
ASSAY READOUT: IC50 (M)
Only the number, expressed in M, is required.

Known IC50 results, listed for orientation:
1) CCc1c2c(nn1C)CN(C(=O)OCCOC)CCCCn1c(C(=O)O)c(CCCOc3cccc4cc(F)ccc34)c3ccc(Cl)c-2c31 | 2.3e-07
2) Cc1c2c(nn1C)COCCCCn1c(C(=O)O)c(CCCOc3cccc4ccccc34)c3ccc(Cl)c-2c31 (racemic) | 5.6e-07
3) CCc1c2c(nn1C)CN(C)CCC(F)(F)Cn1c(C(=O)O)c(CCCOc3cccc4cc(F)ccc34)c3ccc(Cl)c-2c31 (racemic) | 4.5e-07

# next compound below
input: // lookup IC50 for Cc1c2c(nn1C)COCCC(F)(F)Cn1c(C(=O)O)c(CCCOc3cccc4ccccc34)c3ccc(Cl)c-2c31 (racemic) [Example 68]
output: 2.6e-06

###

- System: SUDHL5 cells
- ASSAY SUMMARY: Induction of cytotoxicity (CellTiter-Glo, 5 h), SUDHL5
- CONDITION SUMMARY: read-out: Cytotox SUDHL5 [M] (median); IC50, median; SUDHL5, 5 h; listed as 083
ASSAY READOUT: IC50
Express your answer as a number followed by its unit.

input: Sample Cc1c2c(nn1C)COCC1CC1Cn1c(C(=O)O)c(CCCOc3cccc4ccccc34)c3ccc(Cl)c-2c31 (single isomer, unassigned) — what was its IC50?
output: 5.8e-07 M

###

- Test system: NCI-H23 cells
- ASSAY SUMMARY: Antiproliferation assay (CellTiter-Glo, 72 h), NCI-H23
- Type: cell-based
- CONDITION SUMMARY: IC50, median; NCI-H23, 72 h; read-out: Antiproli NCI-H23 [M] median
ASSAY READOUT: IC50 (M)
Numeric only. Scale: M

input: Quick one: IC50 for Cc1c2c(nn1C)COCCCCn1c(C(=O)O)c(CCCOc3cccc4ccccc34)c3ccc(Cl)c-2c31 (single isomer, unassigned; enantiomer 1) [Example 26] ?
output: 2.32e-06

###

- Tested on: SUDHL5 cells
- ASSAY SUMMARY: Induction of cytotoxicity (CellTiter-Glo, 5 h), SUDHL5
- CONDITION SUMMARY: read-out: Cytotox SUDHL5 [M] (median); IC50, median; SUDHL5, 5 h
Parameter: IC50. Scope: all listed entries.
// return numeric value only (unit: M, not printed)

Example cases with answers are listed next.
1) CCc1c2c(nn1C)CN(C)CCCn1c(C(=O)O)c(CCCOc3cccc4cc(F)ccc34)c3ccc(Cl)c-2c31 [Example 114] | 5.7e-06
2) CCc1c2c(nn1C)COCC1CC1Cn1c(C(=O)O)c(CCCOc3cccc4cc(F)ccc34)c3ccc(Cl)c-2c31 (single isomer, unassigned; (-)) [Example 108] | 7e-06
3) CCc1c2c(nn1C)COCC1CC1Cn1c(C(=O)O)c(CCCOc3cccc4cc(F)ccc34)c3ccc(Cl)c-2c31 (racemic) [Example 106] | 2.8e-06

Let's switch to this molecule now.
input: May I ask what IC50 has been recorded for CCc1c2c(nn1C)COCC(O)CCn1c(C(=O)O)c(CCCOc3cccc4cc(F)ccc34)c3ccc(Cl)c-2c31 (stereo not shown) [Example 99] ?
output: 2.7e-07

###

- SYSTEM UNDER TEST: MCL1 protein (Homo sapiens (Human))
- Sequence (Q07820 whole entry): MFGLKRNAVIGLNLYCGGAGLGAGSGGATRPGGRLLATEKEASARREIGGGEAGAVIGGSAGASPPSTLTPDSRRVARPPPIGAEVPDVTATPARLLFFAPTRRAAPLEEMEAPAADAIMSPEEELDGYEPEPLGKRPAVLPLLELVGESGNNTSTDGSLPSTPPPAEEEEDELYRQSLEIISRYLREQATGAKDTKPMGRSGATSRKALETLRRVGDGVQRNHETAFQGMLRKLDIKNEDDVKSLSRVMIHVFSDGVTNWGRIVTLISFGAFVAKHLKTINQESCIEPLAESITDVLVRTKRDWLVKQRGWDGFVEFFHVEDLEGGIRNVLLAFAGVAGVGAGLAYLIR
- ASSAY SUMMARY: PIxEL: protein-protein interaction in permeabilized cells by ELISA (MCL1/biotin-BIM BH3 peptide, RKO cells)
- Format: cell-based
- CONDITION SUMMARY: IC50, median, serum free
ASSAY READOUT: IC50 (nM)
// units = nM; emit number, no label

Record excerpt, results attached:
1. Cc1c2c(nn1C)COCC1CC1Cn1c(C(=O)O)c(CCCOc3cccc4ccccc34)c3ccc(Cl)c-2c31 (single isomer, unassigned; stereoisomer 2) [Example 66] | 1740
2. Cc1c2c(nn1C)COCC1CC1Cn1c(C(=O)O)c(CCCOc3cccc4ccccc34)c3ccc(Cl)c-2c31 (single isomer, unassigned; stereoisomer 1) [Example 65] | 752
3. Cc1c2c(nn1C)CN(C)CCCCn1c(C(=O)O)c(CCCOc3cccc4cc(F)ccc34)c3ccc(Cl)c-2c31 (single isomer, unassigned; enantiomer 2) [Example 32] | 19100
4. Cc1c2c(nn1CCCN1CCN(C)CC1)COCCCCn1c(C(=O)O)c(CCCOc3cccc4ccccc34)c3ccc(Cl)c-2c31 (single isomer, unassigned; enantiomer 1) | 436
5. Cc1c2c(nn1C)CN(C)CCCCn1c(C(=O)O)c(CCCOc3cccc4cc(F)ccc34)c3ccc(Cl)c-2c31 (racemic) [Example 30] | 227

input: Form entry - test system: MCL1 protein (Homo sapiens (Human)); read-out: IC50; molecule: Cc1c2c(nn1C)COCC1CC1Cn1c(C(=O)O)c(CCCOc3cccc4ccccc34)c3ccc(Cl)c-2c31 (single isomer, unassigned)
output: 225
